- Test system: SF-268 CNS
- assay name: NCI tumour cell line growth inhibition, 48 h; in the data active means GI50 below about 0.43 µM; inactive means the rest
Possible outcomes: active, inactive

>  <compound>
CS(=O)(=O)O[C@H]1C(=O)N(c2cc3c4ccccc4ccc3c3ccccc23)[C@@H]1c1ccccc1

>  <label value>
inactive

$$$$
>  <compound>
COc1ccc(CC(C)=C(c2ccc(OCCN3CCCCCC3)cc2)c2ccc(OCCN3CCCCCC3)cc2)cc1

>  <label value>
inactive

$$$$
>  <compound>
CC1(C)C(N(O)C(=O)Nc2ccc(Cl)cc2)N(c2ccc(Cl)cc2)C(=O)N1CC(=O)N/N=C/C=C/c1ccc([N+](=O)[O-])o1 (stereo not drawn)

>  <label value>
inactive

$$$$
>  <compound>
CCO/C=N/C1=C(C#N)C(c2ccc(OC)cc2)c2sc3c(F)cccc3c2O1 (stereo not drawn)

>  <label value>
inactive

$$$$
>  <compound>
c1ccc([P+](c2ccccc2)(c2ccccc2)c2ccc3c4ccc([P+](c5ccccc5)(c5ccccc5)c5ccccc5)c5cccc(c6cccc2c63)c54)cc1

>  <label value>
inactive

$$$$
>  <compound>
Nc1nc(N)c(N=Nc2ccccc2)c(-c2ccccc2)n1

>  <label value>
inactive

$$$$
>  <compound>
COc1cc(/C=C/c2cc(/C=C/c3ccc(O)c(OC)c3)n(-c3c(Cl)cccc3Cl)c(=O)n2)ccc1O

>  <label value>
inactive

$$$$
>  <compound>
COc1cccc(/C=N/[N-]C(=O)c2ccncc2)c1[O-].[Ni+2].[OH3+]

>  <label value>
inactive

$$$$
>  <compound>
COC(=O)[C@@H](C)C[C@H](Cc1ccc2ccccc2c1)NC(=O)c1csc([C@@H](C[C@H](C(C)C)N(C)C(=O)[C@@H](NC(=O)[C@H]2CCCCN2C)C(C)C)OC(C)=O)n1

>  <label value>
active

$$$$
>  <compound>
COc1cc2c3c(n(CCCNCCNCCN)c(=O)c2cc1OC)-c1cc2c(cc1C3=O)OCO2

>  <label value>
inactive

$$$$
>  <compound>
CNC(=O)NCC1OC(n2cnc3c(NC(=O)Nc4ccccc4)ncnc32)C(O[Si](C)(C)C(C)(C)C)C1CC(=O)N(C)OC (stereo not drawn)

>  <label value>
inactive

$$$$
>  <compound>
Cn1ncc(NC(=O)c2nc(-c3c(F)cccc3F)sc2N)c1N1CC[C@@H](N)[C@H](F)CC1

>  <label value>
inactive

$$$$
>  <compound>
CCC(CC)c1nc(Nc2cccc(OC)c2)c2ccccc2n1

>  <label value>
inactive

$$$$
>  <compound>
CC(=O)/C=C/c1ccc(OCc2ccc(C(C)(C)C)cc2)cc1

>  <label value>
inactive

$$$$
>  <compound>
O=C1C=CC(=O)c2cc3cc(CO)ccc3cc21

>  <label value>
inactive

$$$$
>  <compound>
O=c1c2cc(F)ccc2sc2c(Nc3ccncc3)nc3ccccc3c12

>  <label value>
inactive

$$$$
>  <compound>
CCC[CH2][Sn]1([CH2]CCC)[O]C(=O)c2cccc(C)c2[O]1

>  <label value>
active

$$$$
>  <compound>
COc1ccc(-c2cc(-c3ccccc3)nc(SCCCC(=O)NO)n2)cc1OC

>  <label value>
inactive

$$$$

###

Parameter: TGI. Scope: all listed entries.
- Tested on: MALME-3M melanoma
- assay name: NCI tumour cell line growth inhibition, 48 h

>  <molecule>
O=C1C=CC(=O)c2cc3cc(CO)ccc3cc21

>  <relational operator>
=

>  <TGI, µM>
26.1

$$$$
>  <molecule>
CCCCCCCCCCCCCCCC/C(C(=O)OC)=C(/O)C(=O)OCC

>  <relational operator>
>

>  <TGI, µM>
100

$$$$
>  <molecule>
O=C1C(Cl)C(c2cc3cc(Br)ccc3nc2Cl)N1c1ccc(F)c(Cl)c1 (centres undefined)

>  <relational operator>
=

>  <TGI, µM>
22.8

$$$$
>  <molecule>
C=CCOC(C)n1c(C)cc(=O)n(C(C)OCC=C)c1=O (centres undefined)

>  <relational operator>
>

>  <TGI, µM>
100

$$$$
>  <molecule>
CN(C)CCCNC(=O)c1cc2/c(=C\c3ccc(N(C)C)cc3)c3ccccc3n2[n+]1C

>  <relational operator>
=

>  <TGI, µM>
38.4

$$$$
>  <molecule>
C=C1C(=O)O[C@H]2[C@H]1CC/C(COC(=O)/C=C/C(=O)NCc1ccc(Cn3c(=O)sn(-c4ccccc4)c3=O)cc1)=C\CC[C@@]1(C)O[C@@H]21

>  <relational operator>
=

>  <TGI, µM>
2.41

$$$$
>  <molecule>
Cc1nn(C(=O)c2ccccc2O)c2c1C(c1ccc3ccccc3c1O)SC(N)=N2 (centres undefined)

>  <relational operator>
>

>  <TGI, µM>
10

$$$$
>  <molecule>
O/N=C1/C(=C/c2ccc(Cl)c(Cl)c2)CCCC1C(NO)c1ccc(Cl)c(Cl)c1 (centres undefined)

>  <relational operator>
=

>  <TGI, µM>
44.4

$$$$
>  <molecule>
COc1ccc(/C(=N/O)C(c2ccc(OC)cc2)C2C(=O)Oc3ccccc32)cc1 (centres undefined)

>  <relational operator>
>

>  <TGI, µM>
100

$$$$

###

- System: RPMI-8226 leukemia
- assay name: NCI tumour cell line growth inhibition, 48 h
Parameter: TGI. Scope: all listed entries.
measured quantity: TGI

>  <compound>
CC1(C)C(N(O)C(=O)Nc2ccc(Cl)cc2)N(c2ccc(Cl)cc2)C(=O)N1CC(=O)N/N=C/C=C/c1ccc([N+](=O)[O-])o1 (stereo not drawn)

>  <tested target>
RPMI-8226 leukemia

>  <endpoint value>
1.63 µM

$$$$
>  <compound>
CCOC(=O)C(=O)/C(=C/n1c(=S)[nH]c2ccc([N+](=O)[O-])cc21)C(=O)OCC

>  <tested target>
RPMI-8226 leukemia

>  <endpoint value>
> 100 µM

$$$$
>  <compound>
C1CSC(Sc2nc(SC3=NCCS3)nc(SC3=NCCS3)n2)=N1

>  <tested target>
RPMI-8226 leukemia

>  <endpoint value>
> 100 µM

$$$$
>  <compound>
COC(=O)CN(CC1O[C@@H]2OC(C)(C)O[C@@H]2C1N=[N+]=[N-])C(=O)OCc1ccccc1 (stereo partly drawn)

>  <tested target>
RPMI-8226 leukemia

>  <endpoint value>
> 100 µM

$$$$
>  <compound>
CCOC(=O)C(C)c1c(C(=O)c2ccc(C)nc2)c2ccccc2n1C (stereo not drawn)

>  <tested target>
RPMI-8226 leukemia

>  <endpoint value>
> 100 µM

$$$$
>  <compound>
O=C(COc1nc2ccccc2nc1-c1ccccc1)Nc1ccc(Cl)cc1

>  <tested target>
RPMI-8226 leukemia

>  <endpoint value>
> 100 µM

$$$$
>  <compound>
CC(C)(Cl)C(Br)CCC(C)(Br)C(Br)CBr (stereo not drawn)

>  <tested target>
RPMI-8226 leukemia

>  <endpoint value>
40.1 µM

$$$$
>  <compound>
Cc1ccc(-n2c(=O)c3nn4c(=O)n(-c5ccc(C)cc5)c(=O)c4nn3c2=O)cc1

>  <tested target>
RPMI-8226 leukemia

>  <endpoint value>
> 100 µM

$$$$
>  <compound>
CCn1cc(C(=O)O)c(=O)c2cc(F)c(N3CCN(CN4C(=O)/C(=N\c5ncc(Cc6cc(OC)c(OC)c(OC)c6)c(N)n5)c5cc(Cl)ccc54)CC3)cc21

>  <tested target>
RPMI-8226 leukemia

>  <endpoint value>
> 100 µM

$$$$
>  <compound>
CC(C)(C)OC(=O)NCCc1ccc(N)cc1

>  <tested target>
RPMI-8226 leukemia

>  <endpoint value>
> 100 µM

$$$$
>  <compound>
O=C(Cc1nc2ccccc2o1)C(=O)Nc1ccccc1C(F)(F)F

>  <tested target>
RPMI-8226 leukemia

>  <endpoint value>
> 100 µM

$$$$
>  <compound>
NC1CCCCC1N.Nc1c(N=Nc2ccc(-c3ccc(N=Nc4cc(S(=O)(=O)[O-])c5ccccc5c4N)cc3)cc2)cc(S(=O)(=O)[O-])c2ccccc12.[OH3+].[OH3+].[Pt+4]

>  <tested target>
RPMI-8226 leukemia

>  <endpoint value>
66.3 µM

$$$$
>  <compound>
C[C@@]1(Br)C[C@@](C)(Cl)[C@@H](Br)CC1/C=C/Cl (stereo partly drawn)

>  <tested target>
RPMI-8226 leukemia

>  <endpoint value>
73.7 µM

$$$$
>  <compound>
Cn1c(-c2ccccc2)cc(-c2ccsc2)c1-c1ccsc1

>  <tested target>
RPMI-8226 leukemia

>  <endpoint value>
> 100 µM

$$$$
>  <compound>
Cc1[nH]c(=O)[nH]c(=S)c1C(=O)NC1C2CCCCC2NC2CCCCC21 (stereo not drawn)

>  <tested target>
RPMI-8226 leukemia

>  <endpoint value>
> 100 µM

$$$$
>  <compound>
Nc1nc(N)c(N=Nc2ccccc2)c(-c2ccccc2)n1

>  <tested target>
RPMI-8226 leukemia

>  <endpoint value>
46 µM

$$$$
>  <compound>
C=C1C(=O)O[C@H]2[C@H]1CC/C(COC(=O)/C=C/C(=O)NCc1ccc(Cn3c(=O)sn(-c4ccccc4)c3=O)cc1)=C\CC[C@@]1(C)O[C@@H]21

>  <tested target>
RPMI-8226 leukemia

>  <endpoint value>
4.78 µM

$$$$
>  <compound>
CC(C)OC(=O)C1=C2c3ncccc3C(=O)N2[C@@H](Cl)[C@H](Cl)[C@H]1Cl

>  <tested target>
RPMI-8226 leukemia

>  <endpoint value>
> 100 µM

$$$$
